Organism: Rattus norvegicus
Assay: Open TG-GATES - Regimen: Daily Repeat
Type: toxicity, organism-based, Sprague-Dawley
Set-up: regimen Daily Repeat, gender Male, age 6 weeks
Conditions: in vivo, po, 0 mg/kg, 72 h, tissue Plasma, route gavage, dose level Control, time 3 day
Parameter: Cl (meq/L)
State just the number; it will be interpreted in meq/L.

Request the reported Cl associated with COc1ccc2[nH]c([S+]([O-])Cc3ncc(C)c(OC)c3C)nc2c1 (centres undefined)
102.2

Request the reported Cl associated with "COC1=CC(=O)C[C@@H](C)[C@]12Oc1c(Cl)c(OC)cc(OC)c1C2=O"
104.4

Request the reported Cl associated with CCOC(=O)CCC(=O)O[C@H]1[C@H](O[C@@H]2[C@@H](C)[C@H](O[C@H]3C[C@@](C)(OC)[C@@H](O)[C@H](C)O3)[C@@H](C)C(=O)O[C@H](CC)[C@@](C)(O)[C@H](O)[C@@H](C)C(=O)[C@H](C)C[C@@]2(C)O)O[C@H](C)C[C@@H]1N(C)C [ERYTHROMYCIN ETHYLSUCCINATE]
107.6

Request the reported Cl associated with "CC1=C(/C=C/C(C)=C/C=C/C(C)=C/CO)C(C)(C)CCC1"
106.8
